Assign pEC50 to each entry below.
# Test system: T. brucei brucei Lister 427
# Test name: Trypanosome replication assay
# Assay type: cell-based, Trypanosoma brucei brucei
# Recorded conditions: Trypanosoma brucei, 48 h, read-out: Tbb EC50, concentration giving 50% inhibition of growth of T brucei brucei Lister 427 cells; 48 h; values ±7%
Scale explanation: pEC50 corresponds to minus log10 of a concentration expressed in moles per litre.

Just so you know, measured pEC50 for `CN1CCN(S(=O)(=O)c2ccc(-c3ccc4c(Nc5ccc(OCc6cccc(F)c6)c(Cl)c5)nncc4c3)cc2)CC1` came out at 5.92

For this molecule ( CS(=O)(=O)c1cccc(-c2ccc3ncnc(Nc4ccc(OCc5cccc(F)c5)c(Cl)c4)c3c2)c1 [Compound 10u] ), measured pEC50 is 5.49

Just so you know, measured pEC50 for Fc1cccc(COc2ccc(Nc3ncnc4ccc(-c5ccc(N6CCOCC6)cc5)cc34)cc2Cl)c1 [Compound 23b] came out at 5.72

Input O=S(=O)(c1ccc(-c2ccc3ncnc(Nc4ccc(OCc5cccc(F)c5)c(Cl)c4)c3c2)cc1)N1CCCCC1 [Compound 10l] . Output pEC50: 6.49

pEC50 for Oc1ccc(-c2ccc3ncnc(Nc4ccc(OCc5cccc(F)c5)c(Cl)c4)c3c2)cc1 [Compound 10i] is 5.19

O=S(=O)(c1cccc(-c2ccc3ncnc(Nc4ccc(OCc5cccc(F)c5)c(Cl)c4)c3c2)c1)N1CCOCC1 [Compound 10k] has a reported pEC50 of 6.48
